# test: Half life in simulated intestinal fluid at 20 uM by LC-MS/MS analysis
# Format: ADME

- smiles: "CC(=O)NCCCC[C@H](NC(=O)[C@](C)(CCCCN)NC(=O)[C@H](Cc1ccc2ccccc2c1)NC(=O)[C@H](Cc1ccc(OCCN)cc1)NC(=O)[C@@H]1CSCC[C@H](NC(=O)CCC(=O)O)C(=O)N[C@@H](CCC(N)=O)C(=O)N[C@@H]([C@@H](C)O)C(=O)N[C@@H](Cc2c[nH]c3ccccc23)C(=O)N[C@@H](CCC(N)=O)C(=O)N1)C(=O)N[C@@H](CC(N)=O)C(=O)NCC(N)=O"
  half-life at 20 µM: "> 6 h"
- smiles: "COc1ccc(C[C@H](NC(=O)[C@H]2NC(=O)[C@H](CCC(N)=O)NC(=O)[C@H](Cc3c[nH]c4ccccc34)NC(=O)[C@H]([C@@H](C)O)NC(=O)[C@H](CCC(N)=O)NC(=O)[C@@H](NC(C)=O)CCSC2(C)C)C(=O)N[C@@H](Cc2ccc3ccccc3c2)C(=O)N[C@@](C)(CCCCN)C(=O)N[C@@H](CCC(=O)O)C(=O)N[C@@H](CC(N)=O)C(=O)NCC(N)=O)cc1"
  half-life at 20 µM: "3 to 6 h"
- smiles: "CC(=O)NCCCC[C@](C)(NC(=O)[C@H](Cc1ccc2ccccc2c1)NC(=O)[C@H](Cc1ccc(OCCNC(C)=O)cc1)NC(=O)[C@@H](NC(=O)[C@H](CCC(N)=O)NC(=O)[C@H](Cc1c[nH]c2ccccc12)NC(=O)[C@@H](NC(=O)[C@H](CNC(C)=O)NC(=O)[C@@H](NC(C)=O)C(C)(C)S)[C@@H](C)O)C(C)(C)S)C(=O)N[C@@H](CCC(=O)O)C(=O)N[C@@H](CC(N)=O)C(=O)NCC(N)=O"
  half-life at 20 µM: "> 6 h"
- smiles: "CC(=O)NCCCC[C@H](NC(=O)[C@@](C)(NC(=O)[C@H](Cc1ccc2ccccc2c1)NC(=O)[C@H](Cc1ccc(OCCN)cc1)NC(=O)[C@@H]1CSCC[C@H](NC(C)=O)C(=O)N[C@@H](CCC(N)=O)C(=O)N[C@@H]([C@@H](C)O)C(=O)N[C@@H](Cc2c[nH]c3ccccc23)C(=O)N[C@@H](CCC(N)=O)C(=O)N1)C(C)C)C(=O)N[C@@H](CC(N)=O)C(=O)NCC(N)=O"
  half-life at 20 µM: "2 to 3 h"
- smiles: "COc1ccc(C[C@H](NC(=O)[C@@H]2CSCC[C@H](NC(C)=O)C(=O)N[C@@H](CCC(N)=O)C(=O)N[C@@H]([C@@H](C)O)C(=O)N[C@@H](Cc3c[nH]c4ccccc34)C(=O)N[C@@H](CCC(N)=O)C(=O)N2)C(=O)N[C@@H](Cc2ccc3ccccc3c2)C(=O)N[C@@](C)(CCCCN)C(=O)N[C@@H](CCCCNC(C)=O)C(=O)N[C@@H](CC(N)=O)C(=O)NCC(N)=O)cc1"
  half-life at 20 µM: "3 to 6 h"
- smiles: "CC(=O)NCCCC[C@H](NC(=O)[C@](C)(CC(C)C)NC(=O)[C@H](Cc1ccc2ccccc2c1)NC(=O)[C@H](Cc1ccc(OCCNC(C)=O)cc1)NC(=O)[C@@H](NC(=O)[C@H](CCC(N)=O)NC(=O)[C@H](Cc1c[nH]c2ccccc12)NC(=O)[C@@H](NC(=O)[C@H](CCC(N)=O)NC(=O)[C@@H](NC(C)=O)C(C)(C)S)[C@@H](C)O)C(C)(C)S)C(=O)N[C@@H](CC(N)=O)C(=O)N[C@@H](CC(N)=O)C(N)=O"
  half-life at 20 µM: "> 6 h"
- smiles: "COc1ccc(C[C@H](NC(=O)[C@@H](NC(=O)[C@H](CCC(N)=O)NC(=O)[C@H](Cc2c[nH]c3ccccc23)NC(=O)[C@@H](NC(=O)[C@H](CCC(N)=O)NC(=O)[C@@H](NC(C)=O)C(C)(C)S)[C@@H](C)O)C(C)(C)S)C(=O)N[C@@H](Cc2c[nH]c3ccccc23)C(=O)N[C@@](C)(CCCCN)C(=O)N[C@@H](CCCCNC(C)=O)C(=O)N[C@@H](CC(N)=O)C(=O)NCC(N)=O)cc1"
  half-life at 20 µM: "> 6 h"
- smiles: "CC(=O)N[C@H](CCC(=O)O)C(=O)N[C@H]1CCSC[C@@H](C(=O)N[C@@H](Cc2ccc(OCCN)cc2)C(=O)N[C@@H](Cc2ccc3ccccc3c2)C(=O)N[C@@](C)(CCCCN)C(=O)N[C@@H](CCC(=O)O)C(=O)N[C@@H](CC(N)=O)C(=O)N[C@@H](CC(N)=O)C(N)=O)NC(=O)[C@H](CCC(N)=O)NC(=O)[C@H](Cc2c[nH]c3ccccc23)NC(=O)[C@H]([C@@H](C)O)NC(=O)[C@H](CCC(N)=O)NC1=O"
  half-life at 20 µM: "> 6 h"
- smiles: "COc1ccc(C[C@H](NC(=O)[C@@H](NC(=O)[C@H](CCC(N)=O)NC(=O)[C@H](Cc2c[nH]c3ccccc23)NC(=O)[C@@H](NC(=O)[C@H](CCC(N)=O)NC(=O)[C@@H](NC(=O)[C@@H]2CCC(=O)N2)C(C)(C)S)[C@@H](C)O)C(C)(C)S)C(=O)N[C@@H](Cc2ccc3ccccc3c2)C(=O)N[C@@](C)(CCCCN)C(=O)N[C@@H](CCCCNC(C)=O)C(=O)N[C@@H](CC(N)=O)C(=O)NCC(N)=O)cc1"
  half-life at 20 µM: "> 6 h"
- smiles: "CC(=O)NCCOc1ccc(C[C@H](NC(=O)[C@@H](NC(=O)[C@H](CCC(N)=O)NC(=O)[C@H](Cc2c[nH]c3ccccc23)NC(=O)[C@@H](NC(=O)[C@H](CCC(N)=O)NC(=O)[C@@H](NC(C)=O)C(C)(C)S)[C@@H](C)O)C(C)(C)S)C(=O)N[C@@H](Cc2ccc3ccccc3c2)C(=O)N[C@@](C)(CC(C)C)C(=O)N[C@@H](CCC(N)=O)C(=O)N[C@@H](CC(N)=O)C(=O)N[C@@H](CC(N)=O)C(N)=O)cc1"
  half-life at 20 µM: "> 6 h"
